Target: Tubulin (Sus scrofa, UniProt P02550+P02554)
Construct: Tubulin is purified from pig brain according to published methods
Sequence (P02550 whole entry): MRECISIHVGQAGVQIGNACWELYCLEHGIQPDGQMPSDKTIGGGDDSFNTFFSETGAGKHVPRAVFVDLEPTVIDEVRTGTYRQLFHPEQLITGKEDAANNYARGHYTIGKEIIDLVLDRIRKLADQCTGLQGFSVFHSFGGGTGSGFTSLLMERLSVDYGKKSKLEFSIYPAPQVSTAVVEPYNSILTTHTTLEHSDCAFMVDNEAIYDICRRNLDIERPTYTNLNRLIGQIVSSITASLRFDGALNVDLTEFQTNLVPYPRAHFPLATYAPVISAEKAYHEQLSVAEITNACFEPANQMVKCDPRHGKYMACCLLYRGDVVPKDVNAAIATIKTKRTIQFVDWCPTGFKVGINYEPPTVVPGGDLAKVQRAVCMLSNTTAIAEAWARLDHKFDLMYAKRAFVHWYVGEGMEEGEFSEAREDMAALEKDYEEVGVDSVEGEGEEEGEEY
Sequence (P02554 whole entry): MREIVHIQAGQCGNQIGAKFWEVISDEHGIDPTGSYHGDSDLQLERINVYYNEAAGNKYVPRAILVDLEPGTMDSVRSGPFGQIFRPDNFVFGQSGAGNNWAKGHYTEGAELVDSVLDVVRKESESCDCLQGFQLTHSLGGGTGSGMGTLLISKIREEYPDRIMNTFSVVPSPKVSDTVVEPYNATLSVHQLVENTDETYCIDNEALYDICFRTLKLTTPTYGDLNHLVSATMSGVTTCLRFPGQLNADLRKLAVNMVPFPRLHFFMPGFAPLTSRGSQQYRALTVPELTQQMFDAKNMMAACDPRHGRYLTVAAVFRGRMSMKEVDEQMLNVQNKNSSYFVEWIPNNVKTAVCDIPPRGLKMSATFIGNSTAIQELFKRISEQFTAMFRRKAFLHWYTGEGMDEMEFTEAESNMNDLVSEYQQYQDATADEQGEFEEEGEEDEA
Test: Evaluation of the inhibition of tubulin polymerization (turbidimetry at 350 nm)
Details: concentration that inhibits the rate of polymerization by 50%; pig brain tubulin 10 μM
pIC50: −log10 of the molar value.
assayEndpoint: pIC50

| compound | assayEndpoint | recordedMeasurement |
| --- | --- | --- |
| CCOC(=O)c1n[nH]c2c1C=CC(c1ccccc1)(c1ccc(F)cc1)C2 (racemic) [Example 10-3A] | pIC50 | 5.92 |
| FCCO/N=C(\c1n[nH]c2c1C=CC(c1ccccc1)(c1ccccc1)C2)C1CC1 [Example 6-11A] | pIC50 | 6.00 |
| O=C(c1cc[nH]c1)c1n[nH]c2c1C=CC(c1ccccc1)(c1ccccc1)C2 | pIC50 | 5.15 |

1 = O=C(c1ccccc1)c1n[nH]c2c1C=CC(c1ccccc1)(c1ccccc1)C2
2 = O=C(c1n[nH]c2c1C=CC(c1ccc(F)cc1)(c1ccc(F)cc1)C2)C1CC1
In: Smaller pIC50 value, 1 vs 2 ? Response format: the label of the selected entry.
Out: 1

----------
Test system: HDMEC cells (Human Dermal Microvascular Endothelial Cells)
Experiment: Detachment of endothelial cells in vitro (test for determining the inhibition of vascularization)
Assay type: cell-based
Details: Homo sapiens, Endothelial cell, 2 h, two hours of treatment, relative to control (untreated cells)
assayEndpoint: inhibition at 1 µM (%)
Record the value in %, omitting the unit from your answer.

Observe how each entry below is paired with its result.
| molecule | recordedMeasurement |
| --- | --- |
| ON=C(c1n[nH]c2c1C=CC(c1ccccc1)(c1ccccc1)C2)C1CCC1 [Example 6-2A] | 18 |
| O=C(NC1CC1)c1n[nH]c2c1C=CC(c1ccccc1)(c1ccccc1)C2 [Example 3-1] | 20 |
| O=C(c1n[nH]c2c1C=CC(c1ccc(F)cc1)(c1ccc(F)cc1)C2)C1CC1 [Example 10-7] | 24 |
| Cc1noc(-c2n[nH]c3c2C=CC(c2ccccc2)(c2ccccc2)C3)n1 [Example 8-1] | 24 |
| CCOC(=O)c1[nH]nc2c1C=CC(c1ccccc1)(c1ccccc1)C2 [Example 1] | 20 |
| CCOC(=O)c1c[nH]c2c1C=CC(c1ccccc1)(c1ccccc1)C2 [Example 12] | 17 |
| C=CC(=O)n1nc(N)c2c1CC(c1ccccc1)(c1ccccc1)C=C2 [Example 7-2] | 25 |
| CCOC(=O)c1n[nH]c2c1C=CC(c1ccccc1)(c1ccc(F)cc1)C2 (single isomer, unassigned) [Example 10-3B] | 19 |

We now examine a further molecule.
In: Param item = ON=C(c1n[nH]c2c1C=CC(c1ccccc1)(c1ccc(F)cc1)C2)C1CC1 (single isomer, unassigned) [Example 10-5A] ; retrieve measured inhibition at 1 µM.
Out: 25

----------
System: HDMEC cells (Human Dermal Microvascular Endothelial Cells)
Test: Detachment of endothelial cells in vitro (test for determining the inhibition of vascularization)
Assay type: cell-based
Settings: Homo sapiens, Endothelial cell, 2 h, two hours of treatment, relative to control (untreated cells)
This listing pairs compounds with measured inhibition at 1 µM.
Field format: number, assumed %, no unit text.

Some compounds with known inhibition at 1 µM results, for comparison:
| compound | inhibition at 1 µM [%] |
| --- | --- |
| O=C(c1n[nH]c2c1C=CC(c1ccccc1)(c1ccccc1)C2)C1CC1 | 29 |
| CON=C(c1[nH]nc2c1C=CC(c1ccccc1)(c1ccccc1)C2)C1CC1 | 26 |
| C=CCO/N=C(\c1n[nH]c2c1C=CC(c1ccccc1)(c1ccccc1)C2)C1CC1 | 17 |

In: What measured inhibition at 1 µM is associated with ON=C(c1n[nH]c2c1C=CC(c1ccccc1)(c1ccccc1)C2)C1CC1 (single isomer, unassigned) on HDMEC cells (Human Dermal Microvascular Endothelial Cells)?
Out: 34

----------
Molecular target: Tubulin (Sus scrofa, UniProt P02550+P02554)
Construct: Tubulin is purified from pig brain according to published methods
Test: Evaluation of the inhibition of tubulin polymerization (turbidimetry at 350 nm)
Conditions: concentration that inhibits the rate of polymerization by 50%; pig brain tubulin 10 μM
assayEndpoint: IC50 (µM)

Reference set (2 entries):
| molecule | unitAnnotation | IC50 |
| --- | --- | --- |
| CCOC(=O)c1n[nH]c2c1C=CC(c1ccccc1)(c1ccc(OC)c(OC)c1)C2 (racemic) | µM | 4.5 |
| O=C(c1n[nH]c2c1C=CC(c1ccccc1)(c1ccccc1)C2)C1CCC1 | µM | 1.1 |

I = CCOC(=O)c1[nH]nc2c1C=CC(c1ccccc1)(c1ccccc1)C2
II = O=C(c1n[nH]c2c1C=CC(c1ccccc1)(c1ccccc1)C2)N1CCC1
In: Among I and II , which shows a numerically higher IC50 result? State your choice using its label.
Out: II

----------
Target: Tubulin (Sus scrofa, UniProt P02550+P02554)
Construct: Tubulin is purified from pig brain according to published methods
Assay: Evaluation of the inhibition of tubulin polymerization (turbidimetry at 350 nm)
Details: concentration that inhibits the rate of polymerization by 50%; pig brain tubulin 10 μM
pIC50: −log10 of the molar value.
assayEndpoint: pIC50

Example cases with answers are listed next.
| molecule | assayEndpoint | recordedMeasurement |
| --- | --- | --- |
| ON=C(c1n[nH]c2c1C=CC(c1ccccc1)(c1ccccc1)C2)C1CCC1 [Example 6-2A] | pIC50 | 6.00 |
| O=[N+]([O-])c1ccc(CO/N=C(\c2n[nH]c3c2C=CC(c2ccccc2)(c2ccccc2)C3)C2CC2)cc1 [Example 6-9A] | pIC50 | 5.82 |
| CCOC(=O)c1n[nH]c2c1C=CC(C)(c1ccccc1)C2 (single isomer, unassigned) [Example 9-2] | pIC50 | 4.82 |
| COCCO/N=C(/c1n[nH]c2c1C=CC(c1ccccc1)(c1ccccc1)C2)C1CC1 [Example 6-7B] | pIC50 | 5.22 |
| O=C(c1n[nH]c2c1C=CC(c1ccccc1)(c1ccc(F)cc1)C2)C1CC1 (single isomer, unassigned) [Example 10-4B] | pIC50 | 6.10 |

1 = CCOC(=O)c1n[nH]c2c1C=CC(c1ccc(F)cc1)(c1ccc(F)cc1)C2 [Example 10-6]
2 = CCOC(=O)c1c[nH]c2c1C=CC(c1ccccc1)(c1ccccc1)C2 [Example 12]
3 = CN(C)CCO/N=C(/c1n[nH]c2c1C=CC(c1ccccc1)(c1ccccc1)C2)C1CC1 [Example 6-10B]
4 = O=C(Nc1n[nH]c2c1C=CC(c1ccccc1)(c1ccccc1)C2)c1ccccc1 [Example 7-4]
In: List items by pIC50 in falling order. Sort the labels as requested; that list is your answer.
Out: 1, 2, 4, 3

----------
Biological target: Tubulin (Sus scrofa, UniProt P02550+P02554)
Construct: Tubulin is purified from pig brain according to published methods
Assay: Evaluation of the inhibition of tubulin polymerization (turbidimetry at 350 nm)
Settings: concentration that inhibits the rate of polymerization by 50%; pig brain tubulin 10 μM
pIC50: −log10 of the molar value.
assayEndpoint: pIC50

Some solved entries appear below for comparison.
| compound | assayEndpoint | recordedMeasurement |
| --- | --- | --- |
| CC(C)OC(=O)c1[nH]nc2c1C=CC(c1ccccc1)(c1ccccc1)C2 [Example 2-1] | pIC50 | 5.43 |
| C1=CC(c2ccccc2)(c2ccccc2)Cc2[nH]nc(-c3ccccc3)c21 [Example 8-2, 3,6,6-Triphenyl-6,7-dihydro-1H-indazole] | pIC50 | 6.00 |
| O=C(NC1CC1)c1n[nH]c2c1C=CC(c1ccccc1)(c1ccccc1)C2 [Example 3-1] | pIC50 | 5.60 |
| CCOC(=O)c1[nH]cc2c1C=CC(c1ccccc1)(c1ccccc1)C2 [Example 11] | pIC50 | 5.19 |
| C=CC(=O)n1nc(N)c2c1CC(c1ccccc1)(c1ccccc1)C=C2 [Example 7-2] | pIC50 | 5.30 |

a = ON=C(c1n[nH]c2c1C=CC(c1ccccc1)(c1ccc(F)cc1)C2)C1CC1 (single isomer, unassigned) [Example 10-5A]
b = Cc1noc(-c2n[nH]c3c2C=CC(c2ccccc2)(c2ccccc2)C3)n1 [Example 8-1]
c = CN(C)CCO/N=C(\c1n[nH]c2c1C=CC(c1ccccc1)(c1ccccc1)C2)C1CC1 [Example 6-10A]
d = ON=C(c1n[nH]c2c1C=CC(c1ccccc1)(c1ccccc1)C2)C1CC1 (single isomer, unassigned) [Example 6-1A]
e = O=[N+]([O-])c1ccc(CO/N=C(/c2n[nH]c3c2C=CC(c2ccccc2)(c2ccccc2)C3)C2CC2)cc1 [Example 6-9B]
In: Parameters: sort_field (pIC50), sort_dir (desc). A complete answer lists every label in the requested sequence.
Out: d, a, e, c, b
(d: 6.22, a: 6.00, e: 5.60, c: 5.35, b: 5.05)

a = O=C(c1n[nH]c2c1C=CC(c1ccccc1)(c1ccccc1)C2)C1CC1 [Example 5-1]
b = Cc1ccc(S(=O)(=O)n2nc(N)c3c2CC(c2ccccc2)(c2ccccc2)C=C3)cc1 [Example 7-1]
In: Please indicate which item has the smaller measured pIC50: a versus b # answer = label of selected item
Out: b
(b: 5.22, a: 6.10)

A = C1=CC(c2ccccc2)(c2ccccc2)Cc2[nH]nc(-c3ccsc3)c21 [Example 8-4]
B = O/N=C(\c1n[nH]c2c1C=CC(c1ccccc1)(c1ccc(F)cc1)C2)C1CC1 (single isomer, unassigned) [Example 10-5E]
In: Please choose the item with the lower pIC50 value from this pair: A and B Identify your selection by its label.
Out: B
(B: 5.22, A: 5.92)
